# inhibition annotations
Protocol text: M. tuberculosis growth inhibition, HTS (AID 449762);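 further: bacterial growth assessed after seven days of incubation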
Cond: M. tuberculosis H37Rv growth inhibition, 7H9 media; at 25 µM; hits give high values
The whole screen tested about 330,000 compounds, of which about 1,900 (0.58%) were called active. Roughly 4% stayed inconclusive and do not appear here. Not all results are given here. Entries with a potency or affinity are not part of this list.
Experimental endpoint: inhibition

[
  {
    "Compound": "CC(=O)O[C@H]1CC[C@H]2[C@@H]3CCc4cc(O)ccc4[C@H]3CC[C@]12C",
    "Value": "3.79% (inactive)"
  },
  {
    "Compound": "CC1CCCC(NC(=O)CN(C)CC(=O)Nc2ccc(F)cc2)C1C (stereo not given)",
    "Value": "-12.8% (inactive)"
  },
  {
    "Compound": "CC(C)OC(=O)c1ccc(NC(=O)c2cncc(Br)c2)cc1",
    "Value": "33% (inactive)"
  },
  {
    "Compound": "CCn1cc(Br)c(C(=O)Nc2ccc(OC)cc2)n1",
    "Value": "-0.58% (inactive)"
  },
  {
    "Compound": "COc1cc(NC(=O)COC(=O)c2cc(S(=O)(=O)N3CCCCC3)ccc2Cl)c(C)cc1[N+](=O)[O-]",
    "Value": "-2.58% (inactive)"
  },
  {
    "Compound": "O=C(/C=C/c1ccccc1)N1c2ccccc2Sc2ccc(C(F)(F)F)cc21",
    "Value": "25.3% (inactive)"
  },
  {
    "Compound": "Cc1ccc([C@@H]2CC=C(C(=O)O)[C@H](c3ccc(F)cc3)N2S(=O)(=O)c2ccc(C)cc2)cc1",
    "Value": "7.16% (inactive)"
  },
  {
    "Compound": "COc1ccc(NC(=S)NC(=O)c2cncc(Br)c2)cc1",
    "Value": "-11.5% (inactive)"
  },
  {
    "Compound": "Cc1ccc(S(=O)(=O)N2CCN(C(=O)Cn3c(=O)oc4ccccc43)CC2)c(C)c1",
    "Value": "3.86% (inactive)"
  },
  {
    "Compound": "C/C(=N\\Nc1nc(C)cc(-c2ccccc2)n1)c1ccccc1",
    "Value": "9.83% (inactive)"
  }
]

====

Protocol text: M. tuberculosis growth inhibition, HTS (AID 449762);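 further: bacterial growth assessed after seven days of incubation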
Cond: M. tuberculosis H37Rv growth inhibition, 7H9 media; at 25 µM; hits give high values
Screen size: about 330,000 compounds; about 1,900 (0.58%) were called active. Roughly 4% stayed inconclusive and do not appear here. A selection follows. Measured potencies and affinities stand elsewhere.
Experimental endpoint: inhibition (%)

[
  {
    "Compound": "Cc1cccc(C(=O)O/N=C2/CC3CCC2(C)C3(C)C)c1 (stereo unspecified)",
    "Experimental endpoint": "inhibition",
    "Value": 5.89
  },
  {
    "Compound": "O=C(CS(=O)CC(=O)Nc1cnc2ccccc2c1)Nc1ccc(Cl)cc1 (stereo unspecified)",
    "Experimental endpoint": "inhibition",
    "Value": 47
  },
  {
    "Compound": "O=C(Nc1c2c(nn1-c1ccc(F)cc1)CS(=O)(=O)C2)c1ccc2c(c1)OCO2",
    "Experimental endpoint": "inhibition",
    "Value": -6.48
  },
  {
    "Compound": "CC(C)Nc1nc(-c2ccccn2)nc(-c2ccccc2)c1C#N",
    "Experimental endpoint": "inhibition",
    "Value": -1.18
  },
  {
    "Compound": "c1ccc(-c2nc(-c3ccccn3)nc(-c3ccccn3)n2)nc1",
    "Experimental endpoint": "inhibition",
    "Value": 14.8
  },
  {
    "Compound": "Cc1ccc(C2=NC(C)(C)NC2=O)cc1",
    "Experimental endpoint": "inhibition",
    "Value": 11.8
  }
]

====

Protocol text: M. tuberculosis growth inhibition, HTS (AID 449762);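 further: bacterial growth assessed after seven days of incubation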
Cond: M. tuberculosis H37Rv growth inhibition, 7H9 media; at 25 µM; hits give high values
Out of some 330,000 compounds screened, about 1,900 (0.58%) were called active. Another 4% or so got no clear call; they are omitted. A selection follows. Measured potencies and affinities stand elsewhere.
Experimental endpoint: inhibition (%)

[
  {
    "Compound": "CCCCN(CCCC)Cc1ccc(C(=O)NNC(=O)Nc2ccc(F)cc2)o1",
    "Value": 4.32
  },
  {
    "Compound": "O=C(NNC(=O)C1CCCCC1)c1ccncc1",
    "Value": -9.44
  },
  {
    "Compound": "Cc1cc(C)n(-c2nc(NCCCN(C)C)c3c4c(sc3n2)CCCC4)n1",
    "Value": 9.07
  },
  {
    "Compound": "OCCNCC(O)Cn1ccc2ccccc21 (configuration not stated)",
    "Value": -2.23
  },
  {
    "Compound": "CCN(CC)c1ccc(/C=C/[N+](=O)[O-])cc1",
    "Value": 0.21
  },
  {
    "Compound": "CCCCOC(=O)Nc1ccc(S(=O)(=O)Nc2nc(C)cc(C)n2)cc1",
    "Value": 0.81
  },
  {
    "Compound": "C[C@]12CCC(=O)C=C1CC[C@@H]1C2[C@H](O)C[C@]2(C)C(=O)CCC12 (some centres not stated)",
    "Value": 2.16
  },
  {
    "Compound": "O=C(O)c1cccc(N/N=C/c2cc(Br)cc(Br)c2O)c1",
    "Value": -15.9
  },
  {
    "Compound": "OC(CNc1ccccc1)Cn1ccc2ccccc21 (configuration not stated)",
    "Value": 12.2
  },
  {
    "Compound": "CN(/N=C/c1cc(Br)cc(Br)c1O)c1ccccc1",
    "Value": 3.99
  },
  {
    "Compound": "COc1ccc(NC(=O)c2nc[nH]c2C(=O)N(C)Cc2ccccc2)cc1",
    "Value": 9.08
  },
  {
    "Compound": "CCOC(=O)CC(=O)CSc1nnc2c(n1)[nH]c1ccccc12",
    "Value": 7.32
  },
  {
    "Compound": "C/C=C/C(=O)OCc1csc(CC(=O)Nc2ccccc2C)n1",
    "Value": -2.53
  },
  {
    "Compound": "O=C(Nc1cnccn1)C1c2ccccc2Oc2ccccc21",
    "Value": -4.63
  },
  {
    "Compound": "CCOC(=O)/C=C/C(=O)OCc1csc(CC(=O)Nc2ccccc2C)n1",
    "Value": -12.3
  },
  {
    "Compound": "O=S(=O)(NC1=NCCC1)c1cccc(NS(=O)(=O)c2ccc(OC(F)(F)F)cc2)c1",
    "Value": -9.41
  },
  {
    "Compound": "CC1CCN(S(=O)(=O)c2ccc(S(=O)(=O)N3CCC4(CC3)OCCO4)cc2)CC1",
    "Value": 0.35
  },
  {
    "Compound": "CS(=O)(=O)Nc1ccc(C2=NN(C(=O)c3ccco3)C(c3ccccc3)C2)cc1 (configuration not stated)",
    "Value": 2.8
  },
  {
    "Compound": "CC(C)NC(=O)N(C)C[C@H]1Oc2c(NC(=O)C3CC3)cccc2C(=O)N([C@H](C)CO)C[C@@H]1C",
    "Value": 1.1
  },
  {
    "Compound": "CCOc1ccc(C(=S)N2CCN(C)CC2)cc1",
    "Value": -1.09
  },
  {
    "Compound": "O=C(OCc1ccc(O)cc1)c1c(-c2ccsc2)oc2ccc(N3CCOCC3)cc12",
    "Value": -0.88
  },
  {
    "Compound": "COc1ccc(/C=C/c2c(-c3cccc(C)c3)oc3ccc(N4CCOCC4)cc23)cc1",
    "Value": -2.46
  }
]
